test: Pharmacokinetics and plasma concentration of Example 101 in Lewis rats after oral administration (CIA study); type: in vivo, Lewis rat; conditions: Lewis, rat, plasma, oral, 10 mg/kg, oral, day 20, 10 mg/kg, 4 h, per test subject; read-out: Plasma concentration
recorded-metric: concentration at 4 h (ng/mL)

INSERT INTO results (molecule, observed_value) VALUES
  ('CNC(=O)c1[nH]c(C(=O)NC2CCC2)cc1O[C@@H](C)c1ccccc1 (stereo in doubt)', 452);

* * *

biological target: BRD4 BD2 (Homo sapiens (Human)); experiment: NanoBRET bromodomain assay, NanoLuc-BRD4-BD2 fusion in HEK293 cells; conditions: BRD4 BD2 (IC50), NanoBRET, HEK293 cells, top concentration 10 μM
Measured IC50 of individual entries
recorded-metric: IC50

INSERT INTO assay_data (compound, observed_value) VALUES
  ('CNC(=O)c1[nH]c(-c2ncc(C)[nH]2)cc1O[C@@H](C)c1ccccc1 [23 (2)*]', '> 10 µM'),
  ('CNC(=O)c1[nH]c(C(=O)NC(C)C)cc1O[C@@H](C)c1ccc(Cl)cc1', '0.05 to 0.2 µM'),
  ('CNC(=O)c1[nH]c(C(=O)N[C@H]2CC[C@H](O)CC2)cc1OC(C)c1ccccc1 (single isomer, unassigned) [Example 97]', '0.05 to 0.2 µM'),
  ('CNC(=O)c1[nH]c(C(=O)NC(C)(C)C)cc1O[C@@H](C)c1ccccc1', '0.2 to 1 µM'),
  ('CCNC(=O)c1cc(OC(CCOC)c2ccccc2)c(C(=O)NC)[nH]1 (racemic)', '> 10 µM'),
  ('CCNC(=O)c1cc(OC(C)c2ccccc2C)c(C(=O)NC)[nH]1 (racemic)', '0.05 to 0.2 µM'),
  ('CNC(=O)c1[nH]c(C(=O)N[C@H]2CC[C@H](O)CC2)cc1OC(C)c1ccccc1 (single isomer, unassigned) [Example 98]', '> 10 µM'),
  ('CNC(=O)c1[nH]c(-c2cc(C)nc(C)c2)cc1O[C@@H](C)c1ccccc1', '0.2 to 1 µM');

* * *

assay: Beagle dog PK study 2 of Example 101 (HPβCD based formulation, IV), with clinical observations; type: in vivo; details: beagle, dog, plasma, iv, 1 mg/kg, dog PK study 2, IV 1 mg/kg, HPβCD, Test Animal 1
recorded-metric: half-life (min)

INSERT INTO results (compound, recorded_metric, observed_value) VALUES
  ('CNC(=O)c1[nH]c(C(=O)NC2CCC2)cc1O[C@@H](C)c1ccccc1 (stereo in doubt) [Example 101]', 'half-life', 34.4);

* * *

target: BRD4 BD2 (Homo sapiens (Human), UniProt O60885); experiment: NanoBRET bromodomain assay, NanoLuc-BRD4-BD2 fusion in HEK293 cells; settings: BRD4 BD2 (IC50), NanoBRET, HEK293 cells, top concentration 10 μM;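 further: tracer displacement BRET read in transfected cells after 2 h compound exposure at 37 °C, signal in milliBRET units corrected against no-tracer background wells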
recorded-metric: IC50

INSERT INTO results (compound, observed_value) VALUES
  ('CCNC(=O)c1cc(OC(C)c2ccccc2Cl)c(C(=O)NC)[nH]1 (racemic)', '200 to 1000 nM'),
  ('CNC(=O)c1[nH]c(C(=O)NC2CCC2)cc1OC(C)c1ccccc1F (single isomer, unassigned)', '50 to 200 nM'),
  ('CCNC(=O)c1cc(OC(C)c2cccc(C(F)(F)F)c2)c(C(=O)NC)[nH]1 (racemic)', '200 to 1000 nM'),
  ('CCNC(=O)c1cc(OC(C)c2cccc(Cl)c2)c(C(=O)NC)[nH]1 (racemic)', '50 to 200 nM'),
  ('CCNC(=O)c1cc(OC(C)c2ccc(C)cc2)c(C(=O)NC)[nH]1 (single isomer, unassigned) [Example 26]', '> 10000 nM'),
  ('CCNC(=O)c1cc(OC(C)c2ccccc2C#N)c(C(=O)NC)[nH]1 (racemic)', '> 10000 nM'),
  ('CCNC(=O)c1cc(OC(C)c2ccccn2)c(C(=O)NC)[nH]1 (racemic)', '200 to 1000 nM'),
  ('CCNC(=O)c1cc(OC(C)c2ccc(F)cc2)c(C(=O)NC)[nH]1 (racemic)', '50 to 200 nM'),
  ('CNC(=O)c1[nH]c(C(=O)N[C@H]2CCOC2)cc1O[C@@H](C)c1ccccc1', '200 to 1000 nM'),
  ('CNC(=O)c1[nH]c(C(=O)N[C@H]2CC[C@H](O)CC2)cc1OC(C)c1ccc(Cl)cc1F (single isomer, unassigned) [Example 37]', '1000 to 10000 nM'),
  ('CCNC(=O)c1cc(OC(C)c2ccc(C)cc2)c(C(=O)NC)[nH]1 (single isomer, unassigned) [Example 25]', '< 50 nM'),
  ('CCNC(=O)c1cc(OC(C)c2ccccc2F)c(C(=O)NC)[nH]1 (racemic) [Example 124]', '50 to 200 nM'),
  ('CNC(=O)c1[nH]c(C(=O)NC2COC2)cc1OC(C)c1ccc(Cl)cc1F (single isomer, unassigned)', '50 to 200 nM'),
  ('CCNC(=O)c1cc(OC(c2ccccc2)C2CC2)c(C(=O)NC)[nH]1 (racemic)', '> 10000 nM'),
  ('CNC(=O)c1[nH]c(C(=O)NC(C)C)cc1O[C@@H](C)c1ccccc1F', '50 to 200 nM');
